The reported numbers originate from ChEMBL document CHEMBL5113436.

Measured Cmax values are reported for all entries that follow.
experiment: Cmax in Beagle dog at 15 mg/kg, iv; assay type: ADME, organism-based, Canis lupus familiaris; design: dose 15 mg/kg, route iv; details: in vivo
# unit: ng/mL | format: bare number

CC(=O)NC[C@H]1CN(c2ccc(N3CCOCC3)c(F)c2)C(=O)O1 [LINEZOLID] | 1620

Now, please, on to the next compound.
Look up Cmax: `CC(=O)NC[C@H]1CN(c2cc(F)c(N3CCC4(OCCO4)[C@@H](F)C3)c(F)c2)C(=O)O1` 7100

###

test system: Staphylococcus aureus; experiment: Antibacterial activity against methicillin-resistant Staphylococcus aureus Sta-032 incubated for 18 hrs by CLSI protocol based two-fold serial agar dilution method; type: functional
The following compounds are listed with their measured MIC values.
Numbers only; they are read as µg/mL.

Example cases with answers are listed next.
O=C1O[C@@H](Cn2ccnn2)CN1c1cc(F)c(N2CCC3(OCCO3)C(F)C2)c(F)c1 (stereo not given in full) | 4
CC(=O)NC[C@H]1CN(c2ccc(N3CCC4(CC3)NCCO4)c(F)c2)C(=O)O1 | 2
CC(=O)NC[C@H]1CN(c2ccc(N3CCC4(OCCO4)C(F)C3)c(F)c2)C(=O)O1 (stereo not given in full) | 4

Next compound, MIC to be filled in.
Form field: reported MIC of `CC(=O)NC[C@H]1CN(c2ccc(N3CCC4(CC3)OCC(C)(C)O4)c(F)c2)C(=O)O1` 8

###

assay: AUC in Beagle dog at 15 mg/kg, iv; settings: in vivo
Below: a set of entries, each annotated with reported AUC.
Unit µg·h/mL implied. Number only.

CC(=O)NC[C@H]1CN(c2cc(F)c(N3CCC4(OCCO4)[C@@H](F)C3)c(F)c2)C(=O)O1 | 135

Sample `CC(=O)NC[C@H]1CN(c2ccc(N3CCOCC3)c(F)c2)C(=O)O1` — what was its AUC? 78.2

###

experiment: Cmax in Wistar rat at 15 mg/kg, iv; type: ADME, organism-based; set-up: dose 15 mg/kg, route iv; settings: in vivo
recordedEndpoint: Cmax (ng/mL)
// return numeric value only (unit: ng/mL, not printed)

CC(=O)NC[C@H]1CN(c2ccc(N3CCOCC3)c(F)c2)C(=O)O1 | 8700

Requested field: Cmax. Item: `CC(=O)NC[C@H]1CN(c2cc(F)c(N3CCC4(OCCO4)[C@@H](F)C3)c(F)c2)C(=O)O1` 2370

###

Each entry below lists one item and its recorded MIC value.
system: Staphylococcus aureus; test: Antibacterial activity against methicillin-resistant Staphylococcus aureus Sta-032 incubated for 18 hrs by CLSI protocol based two-fold serial agar dilution method; type: functional
Reply numerically in µg/mL, unit not repeated.

Known MIC results, listed for orientation:
CS(=O)(=O)NC[C@H]1CN(c2ccc(N3CCC4(OCCO4)C(F)C3)c(F)c2)C(=O)O1 (some centres undefined) | 32
CC(=O)NC[C@H]1CN(c2cc(F)c(N3CCC4(OCCO4)[C@@H](F)C3)c(F)c2)C(=O)O1 | 2
CC(=O)NC[C@H]1CN(c2ccc(N3CCC4(CC3)COCCCO4)c(F)c2)C(=O)O1 | 4
O=C1O[C@@H](Cn2ccnn2)CN1c1ccc(N2CCC3(OCCO3)C(F)C2)c(F)c1 (some centres undefined) | 3.12

Would you kindly share the measured MIC for CC(=O)NC[C@H]1CN(c2ccc(N3CCC4(OCCO4)C(C)C3)c(F)c2)C(=O)O1 (some centres undefined) ? 32

I'd like to know its MIC. The compound in question is `CC(=O)NC[C@H]1CN(c2ccc(N3CCC4(CCO4)CC3)c(F)c2)C(=O)O1` 6.25

// query MIC value for entry `CC(=O)NC[C@H]1CN(c2ccc(N3CCCC4(C3)OCCO4)c(F)c2)C(=O)O1` 4

Quick one: MIC for CC(=O)NC[C@H]1CN(c2cc(F)c(N3CCC4(OCCO4)C(F)C3)c(F)c2)C(=O)O1 (some centres undefined) ? 2

Endpoint output: MIC of `CC(=O)NC[C@H]1CN(c2ccc(N3CCC4(CC3)OCCCCO4)c(F)c2)C(=O)O1` . Value? 16

Query (compound): `CC(=O)NC[C@H]1CN(c2ccc(N3CCC4(CC3)OCCS4)c(F)c2)C(=O)O1` ; field requested: MIC 4

Item `CC(=O)NC[C@H]1CN(c2ccc(N3CCC4(CC3)OCCO4)c(F)c2)C(=O)O1` has what recorded MIC? 4

Which value of MIC has been reported for CS(=O)(=O)OC[C@H]1CN(c2ccc(N3CCC4(OCCO4)C(F)C3)c(F)c2)C(=O)O1 (some centres undefined) in the records? 6.25

Look at this compound and give its reported MIC. `CC(=O)NC[C@H]1CN(c2ccc(N3CCC4(OCCO4)C(C)(C)C3)c(F)c2)C(=O)O1` 12.5

# lookup: MIC of `CC(=O)NC[C@H]1CN(c2cc(F)c(N3CCC4(OCCO4)[C@H](F)C3)c(F)c2)C(=O)O1` 8

For CC(=O)NC[C@H]1CN(c2ccc(N3CCC4(CC3)OCC[S+]4[O-])c(F)c2)C(=O)O1 (some centres undefined) , what is its reported MIC? 4

Sample CC(=O)NC[C@H]1CN(c2ccc(N3CCC4(OCCO4)C(F)C3)cc2)C(=O)O1 (some centres undefined) — what was its MIC? 8

If you can, please state the reported MIC value of `CC(=O)NC[C@H]1CN(c2ccc(N3CCC4(CC3)CO4)c(F)c2)C(=O)O1` . 4

# MIC lookup, item `CC(=O)NC[C@H]1CN(c2ccc(N3CCC4(CC3)OCC(C)(C)CO4)c(F)c2)C(=O)O1` 16

What value of MIC has been reported for the following compound? `CC(=O)NC[C@H]1CN(c2ccc(N3CCC4(CC3)COCO4)c(F)c2)C(=O)O1` 4
